The measurements presented in this section are drawn from ChEMBL document CHEMBL3988442.

target: Protein translocase subunit SecA (Escherichia coli (strain K12)); assay: Assay to Identify E. coli SecA ATPase Inhibitors; assay type: functional; parameters: scale not given: direction of the effect not stated beside the values; conditions: 30 µM
Results with a measured potency or affinity are listed apart.
So I've got a bunch of compounds here, and I need their Percent Effect values.
Field format: number, assumed %, no unit text.

Field Percent Effect (system: Protein translocase subunit SecA (Escherichia coli (strain K12))) for entry COc1cc(N2C[C@@H]3COC[C@]3(COc3ccc(C#N)cn3)C2)ncn1 = -3.38

Field Percent Effect (system: Protein translocase subunit SecA (Escherichia coli (strain K12))) for entry Cc1ccc(F)c(OC2(C(=O)O)CCN(C(=O)N3CCCC3)CC2)c1 = 0.204

Field Percent Effect (system: Protein translocase subunit SecA (Escherichia coli (strain K12))) for entry CCc1cnc(N2C[C@H]3C[C@H](C(=O)N(C)C)[C@@H](C2)O3)nc1 = -0.24

Field Percent Effect (system: Protein translocase subunit SecA (Escherichia coli (strain K12))) for entry CCCC(=O)N1CCC(O)(Cn2c(CC)nc3ccccc3c2=O)CC1 = -1.08

Field Percent Effect (system: Protein translocase subunit SecA (Escherichia coli (strain K12))) for entry O=S1(=O)C[C@@H]2[C@H](C1)N(Cc1ncc[nH]1)CCN2CC1CC1 = -2.38

###

So I've got a bunch of compounds here, and I need their Percent Effect values.
target: Proteasome subunit beta (Trypanosoma cruzi); experiment: Trypanosoma cruzi proteasome chymotrypsin-like activity (TcProtChymo) assay.; assay type: functional; set-up: scale not given: in the data most compounds retested in dose-response had high values; settings: 9.37 µM
Field format: number, assumed %, no unit text.

Percent Effect reading for CCN1CCN(C2CCN(Cc3nc4ccccc4o3)CC2)C1=O : 14.2

Percent Effect reading for Cc1ccc(NC2CCN(C(=O)c3cc[nH]n3)CC2)nn1 : 10.7

Percent Effect reading for CCOCCC(=O)N1CCCN(Cc2csc(CC)n2)CC1 : 25.7

Percent Effect reading for Cc1nc(C(=O)N2CCC(Nc3cccnn3)CC2)cs1 : 12.7

Percent Effect reading for Cc1ccc(C(=O)N2CCCC2c2nnc3n2CCCCC3)o1 (stereo unspecified) : 6.84

Percent Effect reading for COc1ccc(CN2CCc3ncnc(OC(C)C)c3CC2)cc1 : 16.2

###

So I've got a bunch of molecules here, and I need their Percent Effect values.
target: Tyrosyl-tRNA synthetase, putative (Trypanosoma cruzi (strain CL Brener)) (UniProt Q4DSP6); assay: Trypanosoma cruzi tyrosyl tRNA synthetase (TcYRS) _High Tyrosine SOP; type: functional; design: scale not given: in the data most compounds retested in dose-response had high values; details: 30 µM
Sequence (Q4DSP6 as listed by the source): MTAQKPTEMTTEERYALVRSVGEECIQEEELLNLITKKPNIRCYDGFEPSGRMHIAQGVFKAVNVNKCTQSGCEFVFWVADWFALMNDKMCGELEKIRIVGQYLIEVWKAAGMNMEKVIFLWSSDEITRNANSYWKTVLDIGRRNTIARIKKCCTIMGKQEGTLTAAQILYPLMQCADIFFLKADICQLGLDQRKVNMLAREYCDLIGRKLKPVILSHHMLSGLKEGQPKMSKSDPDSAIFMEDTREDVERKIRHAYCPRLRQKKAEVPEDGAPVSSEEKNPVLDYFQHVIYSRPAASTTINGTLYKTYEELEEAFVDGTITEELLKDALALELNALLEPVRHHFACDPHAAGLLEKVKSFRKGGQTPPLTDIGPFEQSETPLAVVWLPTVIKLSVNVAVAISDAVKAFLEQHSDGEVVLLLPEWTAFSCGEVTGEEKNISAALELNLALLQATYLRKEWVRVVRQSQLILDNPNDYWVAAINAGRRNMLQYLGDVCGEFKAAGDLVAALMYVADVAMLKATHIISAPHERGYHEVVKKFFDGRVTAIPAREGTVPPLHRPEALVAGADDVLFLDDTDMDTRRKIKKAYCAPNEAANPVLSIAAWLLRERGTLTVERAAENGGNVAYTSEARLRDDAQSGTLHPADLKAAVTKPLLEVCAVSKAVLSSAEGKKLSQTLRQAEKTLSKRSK
Report field: quantity (unit follows the number).

Percent Effect reading for CC(=O)N1CC(Cc2nccc3ccn(C)c23)C1 : 1.06%

Percent Effect reading for COc1ccccc1C1(C(=O)NCCN2CCOCC2)CCOCC1 : 3.45%

Percent Effect reading for O=C(C1CCOCC1)N1CCC2(CC1)CC(Oc1ccccc1)CO2 (stereo not drawn) : 6.25%

Percent Effect reading for COc1ccnc(N2CCN(C(=O)NCc3ccc(C)s3)CC2)n1 : 5.71%

Percent Effect reading for O=C(NCCCN1CCOCC1)Nc1cnc2cc(Cl)ccc2c1O : 0%

Percent Effect reading for CC(=O)N1CCN(C(=O)CCCc2nc(C(C)C)no2)CC1 : -0.493%

Percent Effect reading for O=C(Nc1ccc(F)cc1)N1C[C@H]2C[C@H](C(=O)N3CCOCC3)[C@@H](C1)O2 : 4.23%

Percent Effect reading for O=C(CN1CCc2ccccc21)Nc1ccc(OC(F)F)cc1 : 0%

Percent Effect reading for Cc1csc(N2CCN(C(=O)Cc3ccc(C)s3)CC2)n1 : 12.3%

Percent Effect reading for CC1CN(Cc2noc(C3CC3)n2)CCN1Cc1nccn1C (stereo not drawn) : 6.4%

Percent Effect reading for Cc1cnc(C(=O)N2CCCC(n3ccnc3C)C2)cn1 (stereo not drawn) : 5.42%

Percent Effect reading for CC(=O)N1CC(=O)N(c2cnn(C)c2)CC12CCN(Cc1ccoc1)C2 (stereo not drawn) : 2.97%

Percent Effect reading for CNC(=O)c1ccc(CN2CCC(N(C)Cc3noc(C)n3)C2)cc1 (stereo not drawn) : -1.91%

Percent Effect reading for O=C(c1cccnc1)N1CCc2ncnc(C3CCOC3)c2CC1 (stereo not drawn) : 4.25%

Percent Effect reading for CCc1cc(NCC(O)CN2CCCCC2)n2ncnc2n1 (stereo not drawn) : 4.25%

Percent Effect reading for NS(=O)(=O)CCNC(=O)c1nnn(-c2ccc(F)cc2)c1C1CC1 : 9.9%

Percent Effect reading for COCC1COCCC12CCN(C(=O)CCc1ccccc1)CC2 (stereo not drawn) : 3.96%

Percent Effect reading for CN1CC(=O)N(c2cccc(F)c2)CC12CCN(Cc1cccnc1)C2 (stereo not drawn) : 3.17%

Percent Effect reading for CC(=O)N1CCN(C)CC(COCc2ccccc2)C1 (stereo not drawn) : 4.3%

Percent Effect reading for Cc1cnc(CN2CCCC(c3cc(C(N)=O)[nH]n3)C2)o1 (stereo not drawn) : 5.42%

Percent Effect reading for Cc1cc(CN2CCOC(CN(C)C)C2)no1 (stereo not drawn) : 1.98%

Percent Effect reading for O=C(CCOCc1ccccc1)N1CCCC1c1noc(C2CC2)n1 (stereo not drawn) : -23.1%

Percent Effect reading for Cn1cnnc1C1CCCN(C(=O)c2n[nH]c3ccccc23)C1 (stereo not drawn) : 8.57%

Percent Effect reading for CC1CN(C)CCN1C(=O)c1ccn(-c2cccc(Cl)c2)n1 (stereo not drawn) : 2.91%

Percent Effect reading for OC(COc1ccccc1)CN1CCC(c2ccn[nH]2)CC1 (stereo not drawn) : 2.46%

Percent Effect reading for O=C(C1CC1)N1CCCC1C1CCN(Cc2ccccc2)CC1 (stereo not drawn) : 4.25%

Percent Effect reading for Cc1csc(N2CCCN(Cc3noc(C)n3)CC2)n1 : 5.21%

Percent Effect reading for CS(=O)(=O)N1CCC(C(=O)NC(Cc2ccsc2)c2nccs2)CC1 (stereo not drawn) : 0%

Percent Effect reading for COc1ccc(CN(C)Cc2nc3c(cnn3C)c(=O)[nH]2)cc1OC : 7.29%

Percent Effect reading for CC(C)c1nc(C2CCCN(C(=O)CCCn3cncn3)C2)no1 (stereo not drawn) : 8.37%

Percent Effect reading for Cc1ccc2c(n1)N(CCn1cccn1)CCN(C(=O)CC1CC1)C2 : -5.38%

Percent Effect reading for Cc1cc(C(=O)N2CC[C@H](OCC3CC3)[C@@H]2Cc2cccnc2)no1 : -1.04%

Percent Effect reading for COCCN1CCC2(CC1)CN(C(=O)N(C)C)c1ccc(C)cc12 : 0%

Percent Effect reading for c1ccc(OCC2CC3(CCN(Cc4ccncc4)CC3)CO2)nc1 (stereo not drawn) : 2.12%

Percent Effect reading for Cc1cccc(OCCC(=O)N2CCN(S(=O)(=O)N(C)C)CC2)c1C : 4.43%

Percent Effect reading for COc1cccc(CCNC(=O)CN2CCCC2c2noc(C)n2)c1 (stereo not drawn) : 7.92%

Percent Effect reading for COC(=O)c1cc(C(=O)N2CCOCC2(C)C)n(-c2ccccc2)n1 : 4.41%

Percent Effect reading for Cc1cc(C)n(CC2CCCN2C(=O)c2c[nH]c3ncccc23)n1 (stereo not drawn) : -0.99%

Percent Effect reading for Cc1cc(C(=O)N2C[C@@H]3COC[C@]3(COCc3cccnc3)C2)no1 : -2.12%

Percent Effect reading for CCN1C(=O)CCC12CCCN(Cc1nccs1)CC2 (stereo not drawn) : 7.45%

Percent Effect reading for Cc1ccc(CNCc2nnc3n2CCCC3C(F)(F)F)o1 (stereo not drawn) : 0.546%

Percent Effect reading for CC1(C(=O)N2CCOCC2)CN(Cc2ccccc2F)CCO1 (stereo not drawn) : 3.19%

Percent Effect reading for CCC(C)NC(=O)Cc1c(C)nc2c(c1C)c(=O)[nH]n2C (stereo not drawn) : 2.15%

Percent Effect reading for COc1ccc(C2C3=C(COC3=O)Nc3[nH]nc(C)c32)cc1OC (stereo not drawn) : 5.29%

Percent Effect reading for Cc1nnc(C(C)N2CCN(Cc3ccc(C#N)cc3)CC2)o1 (stereo not drawn) : 0.493%

Percent Effect reading for COCCN1CC[C@@H](O)[C@@H]1Cc1ccccc1 : 2.12%

Percent Effect reading for COc1ccc(OC)c(NC(=O)N2CCCC2c2ccco2)c1 (stereo not drawn) : -1.06%

Percent Effect reading for c1cnn(CC2CN(c3ncnc4sccc34)CCO2)c1 (stereo not drawn) : 12.9%

###

target: Chromo domain-containing protein 1 (Saccharomyces cerevisiae (strain ATCC 204508 / S288c) (Baker's yeast)); experiment: ScCHD-1 Enzyme Inhibition Assay; assay type: functional; parameters: scale not given: in the data most compounds retested in dose-response had high values; conditions: 30 µM
So I've got a bunch of compounds here, and I need their Percent Effect values.
Field format: number, assumed %, no unit text.

Percent Effect reading for Cc1c(C)n(Cc2ccccn2)c2nc3c(c(N)c12)CCCC3 : -5.09

Percent Effect reading for c1csc(-c2noc(CCCN3CCCC3Cn3cccn3)n2)c1 (configuration not stated) : -1.71

Percent Effect reading for CC(C)NC(=O)N1CCc2nc(C(=O)NCc3ccccc3)sc2CC1 : -3.29

Percent Effect reading for CS(=O)(=O)NCC1CCCN(Cc2ccc(F)c3cccnc23)C1 (configuration not stated) : 3.65

Percent Effect reading for COCCN1CCC2(CC1)CC(COC)N(c1ncccn1)C2 (configuration not stated) : 1.23

Percent Effect reading for Cc1cnn(CC2CN(Cc3nnc(-c4occc4C)o3)CCO2)c1 (configuration not stated) : -5.94

Percent Effect reading for CCn1cc(Br)c(C(=O)NCc2cccnc2)n1 : -1.44

Percent Effect reading for CO[C@H]1CCN(c2ccc(C)nn2)[C@H]1Cc1cnn(C)c1 : -6.2

Percent Effect reading for COCc1ccccc1CNc1nnc(C)c(C)c1C#N : -2.15

Percent Effect reading for CC(C)c1nc2c(n1C)CCN(Cc1nc(-c3cccs3)no1)C2 : 9.28

Percent Effect reading for Cn1cc(C(=O)NC[C@@H]2OC[C@H]3CN(Cc4ccco4)CC[C@H]32)cn1 : -3.21

Percent Effect reading for NC(=O)NCCC(=O)NCc1cccnc1N1CCc2ccccc2C1 : -7.12

Percent Effect reading for CC(=O)N1CCCCC1c1cc(C(=O)N2CCOCC2)[nH]n1 (configuration not stated) : -10.1

Percent Effect reading for Nc1cc2c(nn1)CCN(C(=O)CC1CCCC1)C2 : -5.84

Percent Effect reading for COc1cc(CNC2CCCc3c2cnn3C)cc(OC)c1 (configuration not stated) : -10

Percent Effect reading for O=C1[C@@H]2CCN(Cc3ccncc3)C[C@@H]2OCCN1c1ccccc1 : -5.17

Percent Effect reading for COc1ccc(CN2CCCCC2CNC(=O)OC(C)(C)C)cc1F (configuration not stated) : -2.09

Percent Effect reading for Cn1cc(C(=O)N2C[C@@H]3COC[C@]3(COCc3cccnc3)C2)cn1 : -5.24

Percent Effect reading for CN(C)C(=O)NC1COC2(CCN(Cc3nccn3C)CC2)C1 (configuration not stated) : 0.228

Percent Effect reading for O=C(C1CCOCC1)N1CCC2(CC1)CC(Oc1ccccc1)CO2 (configuration not stated) : -0.343

Percent Effect reading for CCCNC(=O)CNC(=O)CCc1ccccc1Br : -2.27

Percent Effect reading for O=C(Cc1ccc2c(c1)CCO2)N1CCN(c2cnccn2)CC1 : -12.2

Percent Effect reading for COC(=O)Cn1cccc(S(=O)(=O)N2CCC(C)CC2)c1=O : -10.4

Percent Effect reading for CCN1CCN(c2ccc(F)cc2C(C)NCc2ccncc2)CC1 (configuration not stated) : -0.559

Percent Effect reading for COc1cccc(CNC(=O)CN2CCCCC2Cn2cccn2)c1 (configuration not stated) : -17.2

Percent Effect reading for Cc1cccc(CNCc2c(C(C)C)nn(C)c2N2CCOCC2)n1 : -2.13

Percent Effect reading for COc1c(CNCc2ccc(C(=O)N(C)C)cc2)c(C)nn1C : -4.86

Percent Effect reading for COc1ccc(OC)c(NC(=O)NCC(O)c2ccc(F)c(F)c2)c1 (configuration not stated) : -21.5

Percent Effect reading for CC(NC(=O)COc1ccc(F)cc1)c1nnc2n1CCCCC2 (configuration not stated) : -14.6

Percent Effect reading for COc1cccc(CNc2nc(O)cc(C3CC(=O)N(C)C3)n2)c1 (configuration not stated) : -11.6

Percent Effect reading for CCOc1ccccc1OC1CCN(C(=O)c2ccc(=O)[nH]n2)CC1 : -2.32

Percent Effect reading for CN(C)C(=O)N1C[C@H]2CN(Cc3cccc(F)c3)C(=O)[C@H]2C1 : -1.2

Percent Effect reading for Cc1cc(N(C)C)nc(C2(C)CCCN2C(=O)c2cnccn2)n1 (configuration not stated) : -2.81

Percent Effect reading for Cc1nc(CN2CCc3ncnc(-c4ccc(F)cc4)c3CC2)cs1 : -0.896

Percent Effect reading for O=C(c1ccnnc1)N1C[C@@H](OCC2CCCC2)[C@H]2OCCC[C@H]21 : -5.93

Percent Effect reading for COc1cccc(-n2c(C)cc(C(=O)NS(C)(=O)=O)c2C)c1 : -5.99

Percent Effect reading for COc1ccc(CNCC(C)Oc2ccccn2)cc1Br (configuration not stated) : -11.9

Percent Effect reading for O=C(CNC(=O)N1CCc2c([nH]c3ccc(Cl)cc23)C1)N1CCOCC1 : -12.6

Percent Effect reading for COc1cccc([C@@H]2CN(C(=O)c3ccc(C)cc3O)C[C@H]2C(=O)O)c1 : -5.84

Percent Effect reading for CN(C)CC1CSCCCN1C(=O)c1ccc(C(C)(C)C)cc1 (configuration not stated) : -4.54

Percent Effect reading for Cc1nc(CSCCC(=O)NCc2cccnc2N(C)C)cs1 : -7.54

Percent Effect reading for Cc1ccccc1-c1cc(C(=O)N2CCn3c(C)nnc3C2)[nH]n1 : -10.8

Percent Effect reading for CC(=O)NCC1CCN(C(=O)c2csc(-c3ccc(C)cc3C)n2)CC1 : 0.867

Percent Effect reading for CNc1nc2c(s1)C(c1c(F)cccc1Cl)CC(=O)N2 (configuration not stated) : 22.5

Percent Effect reading for Cc1cc(NC(=O)CN2CCn3c(nnc3C(C)C)C2)no1 : -21.2

Percent Effect reading for Cc1ncsc1CN1C[C@@H](OCC2CC2)[C@H]2OCCC[C@H]21 : -8.25

Percent Effect reading for Cc1ccc(C(=O)N2CCc3c(CNS(C)(=O)=O)cncc3C2)o1 : -7.04
